Test: small-molecule microarray binders of probe aXIP, primary screen, biochemical, NeuroSMM set, 635/667 nm fluorescence (AID 1119);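 further: probe is the protein aXip251-270 applied at 1 µg/mL to compound-printed slides; binding of probe to printed compounds measured as 667 nm fluorescence plus signal to noise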
Conditions: higher = more signal, called active from +8 up or from −8 down
PROPERTY: composite Z-score
Lab note: jot the number down without any unit.

molecule=C=CCOC(=O)[C@H]1[C@@H]2C(=O)O[C@@H](c3ccccc3)[C@@H](c3ccccc3)N2[C@@H](c2ccc(OCCOC(=O)[C@@H]3C[C@@H]4C(=O)N5CCC[C@H]5C(=O)N4[C@@H]3c3cccc(OCCO)c3)cc2)[C@]12C(=O)Nc1ccccc12 number=0.594

input: Reported composite Z-score for CN1C(=O)C2C=CC(C(O)C3CCCCC3)N(Nc3ccc([N+](=O)[O-])cc3[N+](=O)[O-])C2C1=O (configuration not stated) : what is it?
output: -0.131

input: Reported composite Z-score for O=C1C2C=CC(C(O)c3c(F)cccc3Cl)N(Nc3ccccc3)C2C(=O)N1c1ccccc1 (configuration not stated) : what is it?
output: 0.229

input: Reported composite Z-score for CCOC(=O)C[C@H]1[C@H](OC(=O)Cc2ccc3c(c2)OCO3)[C@@H](NC(=O)c2ccc(-c3ccccc3)cc2)c2cc(OCCCO)ccc2N1C(=O)Cc1ccc(OC)cc1 : what is it?
output: 0.0844

input: Reported composite Z-score for C=CCOC(=O)[C@@H]1[C@H]2C(=O)O[C@H](c3ccccc3)[C@H](c3ccccc3)N2[C@H](c2ccc(OCCOC(=O)[C@@H]3C[C@@H]4C(=O)N[C@@H](Cc5ccccc5)C(=O)N4[C@@H]3c3ccc(O)cc3)cc2)[C@@]12C(=O)Nc1ccc(I)cc12 : what is it?
output: 0.364

input: Reported composite Z-score for COc1ccc(C(=O)Nc2ccc(CN3C(=O)[C@@]4(O[C@@H](CCO)[C@H]([Si](C)(C)c5ccc(OC)cc5)[C@H]4C)c4ccccc43)cc2)cc1 : what is it?
output: 0.673

input: Reported composite Z-score for [N-]=[N+]=NCc1ccccc1[C@@H]1OC(c2ccc(OCCCO)cc2)=N[C@]1(CCS(=O)(=O)c1ccccc1)C(=O)NCCN1CCOCC1 : what is it?
output: 1.31

input: Reported composite Z-score for COC(=O)[C@@]1(Cc2ccc(F)cc2)[C@H]2c3cc(C(=O)N4CCCC4)n(Cc4cc(C)n(C)n4)c3C[C@H]2CN1C(=O)c1ccccc1 : what is it?
output: 2.46

input: Reported composite Z-score for CCOC(=O)C[C@H]1[C@H](OC(=O)c2ccc(C(=O)c3ccccc3)cc2)[C@@H](NC(=O)c2ccc(-c3ccccc3)cc2)c2cc(OCCCO)ccc2N1C(=O)c1ccccc1 : what is it?
output: 2.04

input: Reported composite Z-score for COCCOC(=O)N1C(=O)[C@@]2(c3cc(C#CCCO)ccc31)[C@H](c1ccc(OCCO)cc1)N1[C@H](c3ccccc3)[C@H](c3ccccc3)OC(=O)[C@H]1[C@@H]2C(=O)N1CCN(c2ncccn2)CC1 : what is it?
output: -0.114

input: Reported composite Z-score for Cc1ccc(S[C@]2(C(=O)NC3CC3)CC(=O)N(C3Cc4ccccc4C3)[C@@H]2c2ccc(CO)cc2)cc1 : what is it?
output: 0.157

input: Reported composite Z-score for [N-]=[N+]=Nc1ccccc1[C@H]1OC(c2ccc(OCCCO)cc2)=N[C@@]1(Cc1ccccc1)C(=O)O : what is it?
output: -0.001

Origin of the recorded values: PubChem BioAssay
